Origin of the recorded values: patent US20250129067A1

# Tested on: Oligodendrocyte progenitor cells (OPCs)
# assay summary: In vitro OPC differentiation assay, MBP expression (immunocytochemistry)
# settings: 72 hours of treatment; fold change over vehicle
measured property: MBP Fold Induction (Over vehicle)

[
  {
    "compound": "Cn1cc(-c2ccc3c(N4CCN(c5ccc(Cc6ccccc6)cc5)CC4)cnn3c2)cn1 [Compound 150]",
    "measured target": "Oligodendrocyte progenitor cells (OPCs)",
    "MBP Fold Induction (Over vehicle)": 2.93
  },
  {
    "compound": "Cn1cc(-c2ccc3c(N4CCN(c5ncc(C(C)(N)c6ccc(F)cc6)cn5)CC4)cnn3c2)cn1 (stereo not shown) [Compound 35]",
    "measured target": "Oligodendrocyte progenitor cells (OPCs)",
    "MBP Fold Induction (Over vehicle)": 1.69
  },
  {
    "compound": "Cn1cc(-c2ccc3c(NC4CN(c5ncc(Cc6ccccc6)cn5)C4)cnn3c2)cn1 [Compound 131]",
    "measured target": "Oligodendrocyte progenitor cells (OPCs)",
    "MBP Fold Induction (Over vehicle)": 2.49
  },
  {
    "compound": "COc1cccc(Cc2cnc(N3CCN(c4cnn5cc(-c6cnn(C)c6)ccc45)CC3)nc2)c1 [Compound 54]",
    "measured target": "Oligodendrocyte progenitor cells (OPCs)",
    "MBP Fold Induction (Over vehicle)": 2.14
  }
]
